Cited source: patent US20030229108A1

Quick reference for melting point among some compounds

Consider the following illustrative entries.
O=C1NC(=S)NC(=O)C1=Cc1cc(Br)cs1 [PX089648]    230 °C (dec.)
O=C1NC(=S)NC(=O)C1=Cc1cccc2ccccc12 [PX089635]    280 °C (dec.)
O=C1NC(=S)NC(=O)C1=Cc1ccc([N+](=O)[O-])s1 [PX074038]    285 °C (dec.)

Proceed to the following item.
Task item: Please list melting point recorded for the compound O=C1NC(=S)NC(=O)C1=Cc1ccc[nH]1 [PX089639]
Reply: 280 °C (dec.)

----------
target: interaction between HIF-1α and p300 (His-HIF-1α / GST-p300) (Homo sapiens, UniProt Q09472+Q16665); construct: corresponding to the C-terminal 390 amino acids into vector pET28a; A plasmid containing the N-terminal 595 amino acids of human p300; made in house; host or cells: E. coli; test: Primary assay: fluorescence-based (DELFIA) screening assay for inhibition of the HIF-1α/p300 interaction; assay type: binding; details: read-out: Primary Assay Inhibition IC50
Sequence (Q16665 437-826 limits assumed): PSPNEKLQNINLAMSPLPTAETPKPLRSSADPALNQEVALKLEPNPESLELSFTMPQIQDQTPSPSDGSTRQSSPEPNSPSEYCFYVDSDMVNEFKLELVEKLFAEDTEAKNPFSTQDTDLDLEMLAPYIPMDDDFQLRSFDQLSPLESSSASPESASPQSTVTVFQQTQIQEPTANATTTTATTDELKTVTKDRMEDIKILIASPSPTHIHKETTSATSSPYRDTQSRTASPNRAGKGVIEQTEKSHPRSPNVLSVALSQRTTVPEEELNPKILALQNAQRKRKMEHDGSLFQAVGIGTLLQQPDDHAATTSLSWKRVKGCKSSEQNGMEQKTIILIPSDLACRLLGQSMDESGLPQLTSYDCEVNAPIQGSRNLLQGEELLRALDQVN
Sequence (Q09472 1-595 limits assumed): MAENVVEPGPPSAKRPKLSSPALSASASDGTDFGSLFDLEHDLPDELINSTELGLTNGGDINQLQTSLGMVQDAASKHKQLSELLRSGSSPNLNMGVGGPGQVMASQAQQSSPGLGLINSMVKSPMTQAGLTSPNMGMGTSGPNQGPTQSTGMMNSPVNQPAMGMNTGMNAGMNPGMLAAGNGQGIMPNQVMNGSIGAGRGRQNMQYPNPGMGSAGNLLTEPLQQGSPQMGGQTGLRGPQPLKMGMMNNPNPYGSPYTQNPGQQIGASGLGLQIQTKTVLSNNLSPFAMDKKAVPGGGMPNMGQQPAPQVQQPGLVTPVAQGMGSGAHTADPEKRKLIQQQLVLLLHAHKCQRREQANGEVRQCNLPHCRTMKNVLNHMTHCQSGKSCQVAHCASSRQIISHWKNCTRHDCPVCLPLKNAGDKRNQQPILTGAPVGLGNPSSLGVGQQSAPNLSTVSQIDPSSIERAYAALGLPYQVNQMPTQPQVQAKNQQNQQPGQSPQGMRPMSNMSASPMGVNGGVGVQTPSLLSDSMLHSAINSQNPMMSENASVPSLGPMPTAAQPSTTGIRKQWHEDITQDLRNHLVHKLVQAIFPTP
measured.endpoint: pIC50
The meaning of pIC50 here: minus log10 of the concentration in molar units.

Consider the following illustrative entries.
Cc1cc2nc3c(=O)n(CC(=O)O)c(=O)nc-3n(C)c2cc1C    5.00
Cn1c(=O)[nH]c(=O)c2c1nc(N)n2CC(O)COc1ccc(Cl)cc1 (centres unmarked)    5.00
COc1ccc(-c2nc3c(=N)n(-c4ccc(Cl)cc4)c(=O)[nH]c3c(=O)[nH]2)cc1    3.90
COc1ccc(-c2nc3c(=N)n(-c4cccc(C(F)(F)F)c4)c(=O)[nH]c3c(=O)[nH]2)cc1OC    3.90
N=c1c2nc(-c3ccccc3)[nH]c(=O)c2[nH]c(=O)n1-c1ccccc1    3.90
N=c1c2nc(-c3ccc4c(c3)OCO4)[nH]c(=O)c2[nH]c(=O)n1-c1ccc(Cl)cc1    3.60
Cn1c(=O)c2c(ncn2CC(O)CN2CCN(c3cccc(Cl)c3)CC2)n(C)c1=O (centres unmarked)    3.82

Task item: Please list pIC50 recorded for the compound COc1cccc(-c2nc3c(=N)n(-c4ccc(Cl)cc4)c(=O)[nH]c3c(=O)[nH]2)c1O
Reply: 3.90

----------
biological target: interaction between HIF-1α and p300 (His-HIF-1α / GST-p300) (Homo sapiens, UniProt Q09472+Q16665); construct: corresponding to the C-terminal 390 amino acids into vector pET28a; A plasmid containing the N-terminal 595 amino acids of human p300; made in house; host or cells: E. coli; assay: Primary assay: fluorescence-based (DELFIA) screening assay for inhibition of the HIF-1α/p300 interaction; format: binding
Quick reference for IC50 among some compounds
A complete answer gives the number and then names the unit.

Task item: Please list IC50 recorded for the compound COc1ccc(C=C2C(=O)NC(=S)NC2=O)cc1OCc1ccccc1
Reply: 20 µM

Task item: Please list IC50 recorded for the compound COc1cccc(C=C2C(=O)NC(=O)NC2=O)c1OC
Reply: 400 µM

Task item: Please list IC50 recorded for the compound CCN1C(=O)/C(=C/C=C/c2ccco2)C(=O)NC1=S
Reply: 35 µM

Task item: Please list IC50 recorded for the compound O=C1NC(=S)NC(=O)C1=Cc1ccc(-c2cc(Cl)ccc2Cl)o1
Reply: 40 µM

Task item: Please list IC50 recorded for the compound O=C1NC(=O)C(=C/C=C/c2ccccc2)C(=O)N1
Reply: 225 µM

Task item: Please list IC50 recorded for the compound O=C1NC(=O)C(=Cc2ccc([N+](=O)[O-])s2)C(=O)N1
Reply: 100 µM

Task item: Please list IC50 recorded for the compound O=C1NC(=O)C(=Cc2ccc(O)cc2)C(=O)N1
Reply: 400 µM

Task item: Please list IC50 recorded for the compound O=C1NC(=S)NC(=O)C1=Cc1cc(Br)cs1
Reply: 45 µM

Task item: Please list IC50 recorded for the compound O=C1NC(=O)C(=Cc2cccc(O)c2)C(=O)N1
Reply: 200 µM

Task item: Please list IC50 recorded for the compound O=C1NC(=O)C(=Cc2ccccc2Cl)C(=O)N1
Reply: 400 µM
